system: SUP-B15; experiment: Inhibition of cell proliferation, CTG method, 72 hours; type: cell-based; conditions: SUP-B15 cells
assay_endpoint: IC50 (nM)

| sample_smiles | unit_descriptor | test_value |
| --- | --- | --- |
| Cc1nc(Nc2ncc(C(=O)Nc3c(C)cccc3Cl)s2)cc(N2CCN(CCOCCOCCOCCOCCOCCOCCOCCN3CCN(c4cc(Nc5ncc(C(=O)Nc6c(C)cccc6Cl)s5)nc(C)n4)CC3)CC2)n1 | nM | 60 |
| Cc1nc(Nc2ncc(C(=O)Nc3c(C)cccc3Cl)s2)cc(N2CCN(CCOCCOCCOCCOCCOCCN3CCN(c4cc(Nc5ncc(C(=O)Nc6c(C)cccc6Cl)s5)nc(C)n4)CC3)CC2)n1 | nM | 50 |

====

In this section, each of the molecules is paired with its reported IC50.
tested on: KU812; test: Inhibition of cell proliferation, CTG method, 72 hours; type: cell-based; conditions: KU812 cells

| sample_smiles | unit_descriptor | IC50 |
| --- | --- | --- |
| Cc1nc(Nc2ncc(C(=O)Nc3c(C)cccc3Cl)s2)cc(N2CCN(CCOCCOCCOCCOCCOCCN3CCN(c4cc(Nc5ncc(C(=O)Nc6c(C)cccc6Cl)s5)nc(C)n4)CC3)CC2)n1 | nM | 0.79 |
| Cc1nc(Nc2ncc(C(=O)Nc3c(C)cccc3Cl)s2)cc(N2CCN(CCOCCOCCOCCOCCOCCOCCOCCN3CCN(c4cc(Nc5ncc(C(=O)Nc6c(C)cccc6Cl)s5)nc(C)n4)CC3)CC2)n1 | nM | 0.49 |

====

experiment: Absolute bioavailability, intravenous vs intragastric administration; type: in vivo; conditions: blood, oral; male SD rat, intragastric vs tail intravenous injection
assay_endpoint: bioavailability (%)

| sample_smiles | assay_endpoint | test_value |
| --- | --- | --- |
| CN(C)CCc1c[nH]c2ccc(CS(=O)(=O)N(C)CCOCCOCCOCCOCCOCCN(C)S(=O)(=O)Cc3ccc4[nH]cc(CCN(C)C)c4c3)cc12 | bioavailability | 17 |

====

In this section, each of the compounds is paired with its reported Papp A→B at 90 min.
experiment: Caco-2 cell monolayer transmembrane transport (unidirectional and bidirectional); conditions: human, Caco-2

| sample_smiles | Papp A→B at 90 min |
| --- | --- |
| CCN[C@H]1C[C@H](C)S(=O)(=O)c2sc(S(=O)(=O)NCCOCC(COCCNS(=O)(=O)c3cc4c(s3)S(=O)(=O)[C@@H](C)C[C@@H]4NCC)(COCCNS(=O)(=O)c3cc4c(s3)S(=O)(=O)[C@@H](C)C[C@@H]4NCC)COCCNS(=O)(=O)c3cc4c(s3)S(=O)(=O)[C@@H](C)C[C@@H]4C)cc21 | 8.86 ×10⁻⁶ cm/s |
| CN(C)CCc1c[nH]c2ccc(CS(=O)(=O)N(C)CCOCCOCCOCCOCCOCCN(C)S(=O)(=O)Cc3ccc4[nH]cc(CCN(C)C)c4c3)cc12 | 10.6 ×10⁻⁶ cm/s |

====

test system: K562; assay: Inhibition of cell proliferation, CTG method, 72 hours; assay type: cell-based; settings: K562 cells
pIC50: −log10 of the molar value.
assay_endpoint: pIC50

| sample_smiles | test_value |
| --- | --- |
| Cc1nc(Nc2ncc(C(=O)Nc3c(C)cccc3Cl)s2)cc(N2CCN(CCOCCOCCOCCOCCOCCOCCOCCN3CCN(c4cc(Nc5ncc(C(=O)Nc6c(C)cccc6Cl)s5)nc(C)n4)CC3)CC2)n1 | 9.47 |
| Cc1nc(Nc2ncc(C(=O)Nc3c(C)cccc3Cl)s2)cc(N2CCN(CCOCCOCCOCCOCCOCCN3CCN(c4cc(Nc5ncc(C(=O)Nc6c(C)cccc6Cl)s5)nc(C)n4)CC3)CC2)n1 | 9.30 |
